For each of the compounds below, state its TGI.
test system: SN12C renal; experiment: NCI tumour cell line growth inhibition, 48 h

Ask: So what's the measured TGI for this one? O=C(Oc1ccc(CO[N+](=O)[O-])cc1)c1ccccc1
Result: 0.701 µM

Ask: So what's the measured TGI for this one? CN(C)CCCNc1ccc2nnn3c4ccc(O)cc4c(=O)c1c23
Result: 18.8 µM

Ask: So what's the measured TGI for this one? c1ccc(-c2nc(N3CCOCC3)c3c4c(sc3n2)CCCCCC4)nc1
Result: 29.4 µM

Ask: So what's the measured TGI for this one? Cc1c(-c2ccnc(N)n2)c2c(n1Cc1ccccc1)C(=O)c1ccccc1C2=O
Result: > 100 µM

Ask: So what's the measured TGI for this one? CN1CC2=C(NC(=S)NC2c2ccccc2)/C(=C/c2ccccc2)C1 (stereo unspecified)
Result: > 100 µM

Ask: So what's the measured TGI for this one? NN=C(CC(O)(C(F)(F)Cl)C(F)(F)Cl)CC(O)(C(F)(F)Cl)C(F)(F)Cl
Result: > 10 µM

Ask: So what's the measured TGI for this one? O=C1C=CC(=O)c2c(O)c(NCCOCCO)c(Cl)c(O)c21
Result: 23 µM

Ask: So what's the measured TGI for this one? Cc1c(C(=O)OCc2ccccc2)[n+](=O)c2cc(Cl)c(Cl)cc2n1[O-]
Result: 45.3 µM

Ask: So what's the measured TGI for this one? c1ccc2c(-c3nc(-c4c[nH]c5ccncc45)cs3)c[nH]c2c1
Result: 3.35 µM

Ask: So what's the measured TGI for this one? NCc1cccc(O)c1O
Result: > 100 µM

Ask: So what's the measured TGI for this one? Cc1cc(N(CCC#N)CCC#N)ccc1N=Nc1ccc(Br)cc1
Result: > 54.8 µM

---

system: MOLT-4 leukemia; test: NCI tumour cell line growth inhibition, 48 h
For each of the compounds below, state its TGI.

Ask: So what's the measured TGI for this one? Cc1cc(=O)[nH]c(NN2C(Cl)C(=O)C2c2ccc([N+](=O)[O-])cc2)n1 (stereo not given)
Result: 43.2 µM

Ask: So what's the measured TGI for this one? COc1cccc(N=N/C(=N\NC(=O)c2ccc(C)cc2)c2ccc(N(CCC#N)CCC#N)cc2C)c1
Result: > 100 µM

Ask: So what's the measured TGI for this one? COC(=O)C1C(=O)N(C)C(=O)N2CCCC12 (stereo not given)
Result: > 100 µM

Ask: So what's the measured TGI for this one? O=c1cc(N/N=C/c2ccc(F)cc2)c2cc(Cl)ccc2[nH]1
Result: > 100 µM

Ask: So what's the measured TGI for this one? C=CCOn1c(C=C)nc2ccc(C)cc21
Result: 68.8 µM

Ask: So what's the measured TGI for this one? O=C(Nc1ccc(-c2nc(-c3cccc(OCCN4CCOCC4)c3)c(-c3ccnc(Br)c3)[nH]2)cc1)c1ccccc1
Result: > 100 µM

Ask: So what's the measured TGI for this one? O=c1/c(=C\c2ccc(F)cc2)sc2n1C(c1ccc(F)cc1)C1=C(N=2)c2ccc3ccccc3c2OCC1 (stereo not given)
Result: > 100 µM

Ask: So what's the measured TGI for this one? c1ccc(/C(=N/Nc2ccncn2)c2ccccn2)cc1
Result: 49.2 µM

Ask: So what's the measured TGI for this one? COc1cc(C2c3cc4c(cc3C3OC[C@@H]2C3CO)OCO4)cc(OC)c1OC (stereo not given in full)
Result: > 100 µM

Ask: So what's the measured TGI for this one? Cc1cc(N=C2C=C(Br)C(=O)C(Br)=C2)cc(CN(CC(=O)O)CC(=O)O)c1O
Result: > 100 µM

---

system: COLO 205 colon; assay: NCI tumour cell line growth inhibition, 48 h; in the data active = GI50 below about 0.43 µM; inactive = the rest
Pick one: YES for active, NO for inactive

Ask: Which outcome was assigned to Cc1cc(O)c(C2=NN(c3ccc(S(N)(=O)=O)cc3)C(c3ccc(Cl)cc3)C2)c(C)c1Cl (stereo not given) in this test?
Result: NO

Ask: Which outcome was assigned to Cc1c2cc(Cl)c3ccccc3c2c[n+]2ccccc12 in this test?
Result: NO

Ask: Which outcome was assigned to Cc1nc2ccc(NC(=O)CCNC(=O)CCCc3ccc(CC(C(=O)O)C(=O)O)cc3)cc2s1 in this test?
Result: NO

Ask: Which outcome was assigned to Cn1cc(-c2ccc3nnc(Sc4ccc5ncccc5c4)n3n2)cn1 in this test?
Result: NO

Ask: Which outcome was assigned to COc1ccc(C(=O)NNc2nc(Cl)nc(N3CCN(C(c4ccccc4)c4ccccc4)CC3)n2)cc1 in this test?
Result: NO

Ask: Which outcome was assigned to COc1cc(NC(=O)CCSc2nc3ccc(C)cc3c(=O)n2Cc2ccccc2)cc(OC)c1OC in this test?
Result: NO

Ask: Which outcome was assigned to O=C(Oc1ccc(CO[N+](=O)[O-])cc1)c1ccccc1 in this test?
Result: YES

Ask: Which outcome was assigned to O=c1[nH]c2nc(NC3CCOCC3)ncc2cc1Oc1ccc(F)cc1F in this test?
Result: NO

Ask: Which outcome was assigned to C#Cc1nc2ccccc2c(=O)[nH]1 in this test?
Result: NO

Ask: Which outcome was assigned to C#CCn1c(=O)c(C)cn(/C(=C\C(=O)OCC)C(=O)OCC)c1=O in this test?
Result: NO

Ask: Which outcome was assigned to Cc1ccc(S(=O)(=O)c2nc(-c3ccccc3)oc2S(C)=O)cc1 (stereo not given) in this test?
Result: NO

Ask: Which outcome was assigned to N.N.N.N.N.O=[N+]([O-])[O-].[Co+3].[O-][Cl+3]([O-])([O-])[O-] in this test?
Result: NO

Ask: Which outcome was assigned to O=P1(S)OC[C@H]2O[C@@H]3[C@H](F)[C@@H]2OP(O)(=S)OC[C@H]2O[C@H]([C@H](F)[C@@H]2O1)n1cnc2c(ncnc21)NC/C=C/CNc1ncnc2c1ncn23 (stereo not given in full) in this test?
Result: NO

Ask: Which outcome was assigned to OCc1ccc(-c2cscc2-c2ccc(CO)o2)o1 in this test?
Result: NO

Ask: Which outcome was assigned to CCCCCCCCNCCC[C@@H](C)[C@H]1CC[C@H]2[C@@H]3[C@H](OCCCN)C[C@H]4C[C@H](OCCCN)CC[C@]4(C)[C@H]3C[C@H](OCCCN)[C@]12C in this test?
Result: NO

---

For each of the compounds below, state its TGI.
tested on: UO-31 renal; assay: NCI tumour cell line growth inhibition, 48 h

Ask: So what's the measured TGI for this one? Cc1ccc(S(=O)CC(CF)OCn2cc(C)c(=O)[nH]c2=O)cc1 (stereo unspecified)
Result: > 100 µM

Ask: So what's the measured TGI for this one? Cc1cc2c([nH]c3ccccc32)c(O)c1-c1c(C)cc2c([nH]c3ccccc32)c1O
Result: 25.7 µM

Ask: So what's the measured TGI for this one? COC(=O)C1C(O)C(C)C(O)C(C)C=C(C)C2=C3C(=C(C)C(=O)c4c(O)c(c(C)c(OC(C)=O)c43)NC(=O)C(C)=C/C=C\C(C)C(O)C(C)C1O)OCO2 (stereo unspecified)
Result: > 100 µM

Ask: So what's the measured TGI for this one? Nc1nc(Cl)cc(NC23CC4CC(CC(C4)C2)C3)n1
Result: > 100 µM

Ask: So what's the measured TGI for this one? CCOC(=O)c1cc(C)nc2c1c(=O)n(-c1ccccc1)c(=O)n2CCCCN1CCN(c2ccccc2)CC1
Result: 65.2 µM

Ask: So what's the measured TGI for this one? CN(Cc1cnc2nc(N)nc(N)c2n1)c1ccc(C(=O)NC(CO)CCCO)cc1 (stereo unspecified)
Result: > 100 µM

---

system: NCI/ADR-RES ovarian; experiment: NCI tumour cell line growth inhibition, 48 h
For each of the molecules below, state its TGI.

Ask: So what's the measured TGI for this one? O=C(Oc1ccc(CO[N+](=O)[O-])cc1)c1ccccc1
Result: 0.434 µM

Ask: So what's the measured TGI for this one? CC(=O)Nc1ccc(OC/C(N)=N/NC(=O)c2ccncc2)cc1
Result: > 100 µM

Ask: So what's the measured TGI for this one? Cc1nnc2n1N=C(c1ccc(Cl)cc1Cl)/C(=C/c1ccc(-c3ccc([N+](=O)[O-])cc3Cl)o1)S2
Result: 37.4 µM

Ask: So what's the measured TGI for this one? CN(C)c1nc2ccccc2c2c1c1c(n2Cc2ccccc2)-c2ccccc2C1=O
Result: > 100 µM

Ask: So what's the measured TGI for this one? CC1(C)CC(=O)C2(CC(CSc3ccccc3)C(CS(=O)(=O)c3ccccc3)C2)C(=O)C1 (configuration not stated)
Result: > 100 µM

Ask: So what's the measured TGI for this one? COc1cc(C)c(C2NC(=O)c3ccccc3N2)cc1C (configuration not stated)
Result: 0.679 µM

Ask: So what's the measured TGI for this one? c1ccc2c(-c3nc(-c4c[nH]c5ccncc45)cs3)c[nH]c2c1
Result: 15.5 µM

Ask: So what's the measured TGI for this one? CCOC(=O)Nn1c(CC#N)nnc1Cc1ccccc1
Result: > 100 µM

Ask: So what's the measured TGI for this one? C=CC[n+]1c2ccccc2n2cc([N+](=O)[O-])ccc21
Result: > 100 µM

Ask: So what's the measured TGI for this one? C=CCC1C(O[Si](C)(C)C(C)(C)C)C(CO[Si](C)(C)C(C)(C)C)OC1n1ccc(=O)[nH]c1=O (configuration not stated)
Result: 3.48 µM

Ask: So what's the measured TGI for this one? O=C1OC[C@H]2[C@@H]1[C@H]1O[C@@H]2C2=C(CCC2)C1=O
Result: > 100 µM

Ask: So what's the measured TGI for this one? C/C(=N\Nc1nc2ccccc2n1C)c1cc2ccccc2cn1
Result: 1.55 µM

Ask: So what's the measured TGI for this one? O=C(N/N=C/C=C/c1ccccc1)c1ccccc1Nc1ccccc1C(=O)N/N=C/C=C/c1ccccc1
Result: > 100 µM

Ask: So what's the measured TGI for this one? Cc1ccccc1N=C(N)Nc1ccccc1C
Result: > 100 µM

Ask: So what's the measured TGI for this one? Cc1nc2c(n1C)C(=O)c1ccccc1C2=O
Result: > 100 µM

Ask: So what's the measured TGI for this one? CC(C)(C)n1c(=O)[nH]c(=O)n1C(C)(C)C
Result: > 100 µM

Ask: So what's the measured TGI for this one? NNC(=O)C1(NC(=O)c2ccccc2)C(c2ccccc2)C(c2ccccc2)=NN1c1ccccc1 (configuration not stated)
Result: > 100 µM

Ask: So what's the measured TGI for this one? Cc1ccc(S(=O)CC(CF)OCn2cc(C)c(=O)[nH]c2=O)cc1 (configuration not stated)
Result: > 100 µM

Ask: So what's the measured TGI for this one? CCCCCCCCCCCCCCCCCCNc1nc(=O)n(C2CC(O)C(COP(=O)(O)O)O2)cc1F (configuration not stated)
Result: > 100 µM

Ask: So what's the measured TGI for this one? CC(C)(C)CC(C)(C)c1cc(O)c(O)c(CN2CCCCC2)c1
Result: 19 µM

Ask: So what's the measured TGI for this one? N#Cc1cc2c(n(C3OC(CO)C(O)C(O)C3O)c1=S)CCCCCC2 (configuration not stated)
Result: > 100 µM

Ask: So what's the measured TGI for this one? COc1ccc2cc(CNCCCCCCNCc3ccc4cc(OC)ccc4c3)ccc2c1
Result: 2.74 µM
